biological target: T1, Apoptosis Inducing Factor, pro-apoptotic form AIF(Δ1-121) (UniProt O95831 122-613); assay: EnSpire label-free direct binding assay; direct binding of CypA peptides, CypA or CypA R55A with AIF(370-394) or AIF(Δ1-121); details (who was immobilised) in the Supplementary Information; conditions: both partners purified
T1 construct: also called apoptogenic form of AIF
T1 sequence (O95831 122-613, stated change not applied): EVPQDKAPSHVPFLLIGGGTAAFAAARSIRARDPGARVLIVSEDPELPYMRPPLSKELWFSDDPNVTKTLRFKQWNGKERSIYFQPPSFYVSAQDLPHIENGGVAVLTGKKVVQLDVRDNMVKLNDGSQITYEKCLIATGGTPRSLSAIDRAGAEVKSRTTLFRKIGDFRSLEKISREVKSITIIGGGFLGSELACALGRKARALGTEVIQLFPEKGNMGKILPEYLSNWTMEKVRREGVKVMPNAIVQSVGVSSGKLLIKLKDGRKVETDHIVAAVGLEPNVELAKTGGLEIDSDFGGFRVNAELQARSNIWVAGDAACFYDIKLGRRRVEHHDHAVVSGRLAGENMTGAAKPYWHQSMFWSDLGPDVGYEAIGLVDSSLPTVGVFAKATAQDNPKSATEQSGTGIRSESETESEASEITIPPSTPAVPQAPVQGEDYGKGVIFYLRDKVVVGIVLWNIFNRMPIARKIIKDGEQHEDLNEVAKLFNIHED
test readout: Kd (µM)
Quick note: give the figure in µM, leave out the unit.

Prompt: # input binder: CypA(55-69) + (49–62), two peptides tested in combination (other, Cyclophilin A (CypA), residues 55-69; Cyclophilin A (CypA), residues 49-62; A mixture of separate peptides; source: synthetic peptides, combined) peptide 1: RIIPGFMCQGGDFTR peptide 2: KGSCFHRIIPGFMC ; wanted: its Kd
Response: 2.2

Prompt: # input binder: CypA(67-79) + (49–62), two peptides tested in combination (other, Cyclophilin A (CypA), residues 67-79; Cyclophilin A (CypA), residues 49-62; A mixture of separate peptides; source: synthetic peptides, combined) peptide 1: FTRHNGTGGKSIY peptide 2: KGSCFHRIIPGFMC ; wanted: its Kd
Response: 2.8

Prompt: # input binder: CypA(121-131) + (83–90), two peptides tested in combination (other, Cyclophilin A (CypA), residues 83-90; A mixture of separate peptides; source: synthetic peptides, combined) peptide 1: WLDGKHVVFGK peptide 2: FEDENFIL ; wanted: its Kd
Response: 31.3

Prompt: # input binder: CypA(121-131) + (99–109) + (83-90), three peptides tested in combination (other, Cyclophilin A (CypA), residues 99-109; Cyclophilin A (CypA), residues 83-90; A mixture of separate peptides; source: synthetic peptides, combined; copies: + +) peptide 1: WLDGKHVVFGK peptide 2: SMANAGPNTNG peptide 3: FEDENFIL ; wanted: its Kd
Response: 38.8

Prompt: # input binder: CypA(55-69) + (67–79), two peptides tested in combination (other, Cyclophilin A (CypA), residues 55-69; Cyclophilin A (CypA), residues 67-79; A mixture of separate peptides; source: synthetic peptides, combined) peptide 1: RIIPGFMCQGGDFTR peptide 2: FTRHNGTGGKSIY ; wanted: its Kd
Response: 51.4

Prompt: # input binder: CypA(55-69) + (67–79) + (49-62), three peptides tested in combination (other, Cyclophilin A (CypA), residues 55-69; Cyclophilin A (CypA), residues 67-79; Cyclophilin A (CypA), residues 49-62; A mixture of separate peptides; source: synthetic peptides, combined; copies: + +) peptide 1: RIIPGFMCQGGDFTR peptide 2: FTRHNGTGGKSIY peptide 3: KGSCFHRIIPGFMC ; wanted: its Kd
Response: 25.2

Prompt: # input binder: CypA(121-131) + (99–109), two peptides tested in combination (other, Cyclophilin A (CypA), residues 99-109; A mixture of separate peptides; source: synthetic peptides, combined) peptide 1: WLDGKHVVFGK peptide 2: SMANAGPNTNG ; wanted: its Kd
Response: 27.2

Where do the numbers come from? From paper PMC5430804.
